- Tested on: KRas G12D mutant
- experimental-protocol: Ras GTP Binding Domain Inhibition Assay (Ras Superfamily Assay)
- assay-setup: 20 μM compound, with SOS
readout-kind: KRas G12D mutant + SOS: % inh.

>  <molecule>
CO[C@H]1CC[C@@H](Nc2nc(-c3nccn3C)nn3cc(-c4cccnc4)c(C)c23)C1 (racemic)

>  <target-entity>
KRas G12D mutant

>  <readout-kind>
KRas G12D mutant + SOS: % inh.

>  <measured-value>
A (A = 1-25% inhibition)

$$$$
>  <molecule>
COCCCNC(=O)c1c(-c2ccn(C)n2)cn2nc(-c3nccn3C)nc(N[C@H]3CC[C@H](OC)C3)c12 (racemic)

>  <target-entity>
KRas G12D mutant

>  <readout-kind>
KRas G12D mutant + SOS: % inh.

>  <measured-value>
0 (0 = 0% inhibition)

$$$$
>  <molecule>
Cc1c(-c2ccn(C(C)C)n2)cn2nc(-c3nccn3C)nc(Nc3nc(C4CC4)no3)c12

>  <target-entity>
KRas G12D mutant

>  <readout-kind>
KRas G12D mutant + SOS: % inh.

>  <measured-value>
A (A = 1-25% inhibition)

$$$$
